Target: JNK3 (Homo sapiens)
Sequence (P53779 whole entry): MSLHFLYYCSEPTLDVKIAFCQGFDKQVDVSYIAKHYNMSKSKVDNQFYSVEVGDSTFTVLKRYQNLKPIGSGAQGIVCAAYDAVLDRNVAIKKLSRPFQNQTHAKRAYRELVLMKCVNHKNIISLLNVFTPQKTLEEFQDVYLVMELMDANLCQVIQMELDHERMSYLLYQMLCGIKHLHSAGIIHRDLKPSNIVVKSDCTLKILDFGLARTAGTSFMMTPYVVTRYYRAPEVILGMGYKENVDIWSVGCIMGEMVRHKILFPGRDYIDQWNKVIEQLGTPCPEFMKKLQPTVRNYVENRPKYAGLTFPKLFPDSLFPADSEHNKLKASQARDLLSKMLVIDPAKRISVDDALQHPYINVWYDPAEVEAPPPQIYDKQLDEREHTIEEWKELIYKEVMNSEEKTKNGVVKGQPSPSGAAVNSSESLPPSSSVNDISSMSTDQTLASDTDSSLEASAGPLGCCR
Assay: Promega NanoBRET intracellular target engagement (tracer K10 displacement), JNK3
property_label: pIC50
One number for each entry, as −log10 of the molar value.

* Cc1ccc(NC(=O)c2ccn3ncc(-c4cnc5[nH]ccc5c4)c3c2)cc1 [CDD-2288] | 5.82

Would you be so kind as to report pIC50 for each listed record?
1. O=C(Nc1ccc(O)c(C(=O)N2CCC2)c1)c1cc2c(-c3cnc4[nH]ccc4c3)cccc2s1 [CDD-3014]
2. COc1ccc(NC(=O)c2cc3c(-c4cnc5[nH]ccc5c4)cccc3s2)cc1C(=O)N1CCN(C)CC1 [CDD-2636]
3. NC(=O)c1cccc(NC(=O)c2cc3c(-c4cnc5[nH]ccc5c4)cccc3s2)c1 [CDD-2936]
4. CN(C)C(=O)c1cc(O)cc(NC(=O)c2cc3c(-c4cnc5[nH]ccc5c4)cccc3s2)c1 [CDD-2937]
5. Cc1ccc(NC(=O)c2cc3c(-c4cnc5[nH]ccc5c4)cccc3s2)cc1C(=O)N(C)C [CDD-2729]
6. Cc1c[nH]c2ncc(-c3cccc4sc(C(=O)Nc5ccc(O)c(C(=O)N(C)C)c5)cc34)cc12 [CDD-3017]
7. COc1ccc(NC(=O)c2cc3c(-c4cnc5[nH]cc(C)c5c4)cccc3s2)cc1C(=O)N(C)C [CDD-2731]
8. CNC(=O)CN1[C@H](CCNC(=O)OCc2ccccc2)CN(Cc2cccc3ccnn23)C[C@H]1CC(=O)NCCCN(C)c1ccc(F)cc1 [CDD-1723]

a:
[6.02, 5.92, 5.94, 5.95, 6.11, 6.63, 6.91, 4.42]

Would you be so kind as to report pIC50 for each listed record?
1. O=C(Nc1ccc(O)c(C(=O)N2CCCCC2)c1)c1cc2c(-c3cnc4[nH]ccc4c3)cccc2s1 [CDD-2634]
2. O=C(Nc1cncnc1)c1cc2c(-c3cnc4[nH]ccc4c3)cccc2s1 [CDD-3015]
3. Cc1ccc(NC(=O)c2ccn3ncc(-c4cncc5ccccc45)c3c2)cc1 [CDD-2325]
4. CNC(=O)c1ccn2ncc(-c3cnc4[nH]ccc4c3)c2c1 [CDD-2574]
5. CNCc1ccc(NC(=O)c2ccn3ncc(-c4cncc5ccccc45)c3c2)cc1 [CDD-2347]
6. O=C(Nc1ccc(F)cc1)c1ccn2ncc(-c3cnc4[nH]ccc4c3)c2c1 [CDD-2486]

a:
[6.92, 5.09, 5.92, 5.23, 5.70, 6.33]

---

Test: In vitro metabolism in mouse liver microsomes
Details: mouse, microsomes
Method: The target product profile seeks to deliver JNK inhibitor as a once daily oral administration. To prioritize compounds for further development, in vitro metabolism of several CDD JNK inhibitors were determined to approximate the plasma half-life and the rate of metabolism of the compounds in vivo.
Please mark T if the recorded half-life is equal to or greater than 0.9 h, and F if it falls below.

Please review the entries below; each comes with its answer.
* CN(C)C(=O)c1cc(NC(=O)c2cc3c(-c4cnc5[nH]ccc5c4)cccc3s2)ccc1OC(F)(F)F | T
* CN(C)C(=O)c1cc(NC(=O)c2cc3c(-c4cnc5[nH]ccc5c4)cncc3s2)ccc1O | T
* Cc1ccc(NC(=O)c2ccn3ncc(-c4cncc5ccccc45)c3c2)cc1 | F

From here, focus on the item given below.
q: Entry CN(C)C(=O)c1cc(NC(=O)c2cc3c(-c4cnc5[nH]ccc5c4)cccc3o2)ccc1O : is its half-life no less than 0.9 h?
a: T

---

Assay: In vitro metabolism in mouse liver microsomes
Conditions: mouse, microsomes
property_label: half-life (min)
Give bare numbers, in min.

* CN(C)C(=O)c1cc(NC(=O)c2nc3c(-c4cnc5[nH]ccc5c4)cccc3s2)ccc1O | 55.5
* O=C(c1cc2c(-c3cnc4[nH]ccc4c3)cccc2s1)N1CCN(c2ccccc2)C(=O)C1 | 34
* COc1ccc(NC(=O)c2cc3c(-c4cnc5[nH]ccc5c4)cccc3s2)cc1C(=O)N1CCN(C)CC1 | 16.3

Now consider the entry below.
q: What value of half-life has been recorded for this entry: O=C(Nc1ccc(O)c(C(=O)NC2COC2)c1)c1cc2c(-c3cnc4[nH]ccc4c3)cccc2s1
a: 170
